Catalogue of GI50 readings, one per entry.
Tested on: SF-268
METHOD NOTES: NCI tumour cell line growth inhibition, 48 h
Active and inactive are the calls of the source. Cut-off read from the data, not from the text of the source: active = GI50 up to about 1.1 µM and inactive = higher.

S=C1NC2=C(COC/C2=C\c2ccccc2Cl)C(c2ccccc2Cl)N1 (stereo unspecified): 51.4 µM (inactive)
CCOC(=O)CNC(=O)C(CCC(=O)N(C)O)NC(=O)CCC(N)C(=O)O (stereo unspecified): > 100 µM (inactive)
NC1(C(=O)O)CCc2ccc(N(CCCl)CCCl)cc2C1 (stereo unspecified): 24.3 µM (inactive)
Cc1cc(C)c(S(=O)(=O)N2CCCN(S(=O)(=O)c3c(C)cc(C)cc3C)OCCCON(S(=O)(=O)c3c(C)cc(C)cc3C)CCCN(S(=O)(=O)c3c(C)cc(C)cc3C)OCCCO2)c(C)c1: > 100 µM (inactive)
CCCCCCCC(CC(=O)NC(CO)C(=O)NC(CO)CC(C)C)OC(=O)CC(CCCCCCC)OC(=O)CC(CCCCCCC)OC1OC(C)C(O)C(OC2OC(C)C(O)C(O)C2OC(C)=O)C1O (stereo unspecified): 5.89 µM (inactive)
CO[C@]12CC(=O)C3(C(C[C@H]4CC5CC[C@H]6C[C@@H](OC(C)=O)CC[C@]6(OC(C)=O)C5C[C@@]43C)C1)C1C[C@H]3[C@@H]4CC[C@H]5C[C@@H](OC(C)=O)CC[C@]5(OC(C)=O)[C@H]4CC[C@]3(C)C12 (stereo partly specified): > 100 µM (inactive)
CC(C)=Nn1cnc(C(=N)C#N)c1N: > 100 µM (inactive)
CC(=O)O/C=C\OC1CCCC1(c1ccccc1)c1ccccc1 (stereo unspecified): 2.92 µM (inactive)
CSC(=S)NN=C1CCCCC1: 38.5 µM (inactive)
CC12CC(=O)Nc3ccccc3N1C(c1ccccc1)=NO2 (stereo unspecified): > 100 µM (inactive)

Next up:
Entry CC[C@H](C)[C@H]1NC(=O)[C@@H](NC(=O)[C@@H](CC(C)C)N(C)CC2CCCN2C(=O)C(C)=O)[C@@H](C)OC(=O)[C@H](Cc2ccc(OC)cc2)N(C)C(=O)C2CCCN2C(=O)[C@H](CC(C)C)NC(=O)[C@@H](C)C(=O)[C@H](C(C)C)OC(=O)C[C@@H]1O (stereo partly specified) : reported GI50 = ?
0.00488 µM (active)
